Reference source: ChEMBL document CHEMBL3392955

system tested: UniProt:Q9NP59
Sequence (Q9NP59 whole entry): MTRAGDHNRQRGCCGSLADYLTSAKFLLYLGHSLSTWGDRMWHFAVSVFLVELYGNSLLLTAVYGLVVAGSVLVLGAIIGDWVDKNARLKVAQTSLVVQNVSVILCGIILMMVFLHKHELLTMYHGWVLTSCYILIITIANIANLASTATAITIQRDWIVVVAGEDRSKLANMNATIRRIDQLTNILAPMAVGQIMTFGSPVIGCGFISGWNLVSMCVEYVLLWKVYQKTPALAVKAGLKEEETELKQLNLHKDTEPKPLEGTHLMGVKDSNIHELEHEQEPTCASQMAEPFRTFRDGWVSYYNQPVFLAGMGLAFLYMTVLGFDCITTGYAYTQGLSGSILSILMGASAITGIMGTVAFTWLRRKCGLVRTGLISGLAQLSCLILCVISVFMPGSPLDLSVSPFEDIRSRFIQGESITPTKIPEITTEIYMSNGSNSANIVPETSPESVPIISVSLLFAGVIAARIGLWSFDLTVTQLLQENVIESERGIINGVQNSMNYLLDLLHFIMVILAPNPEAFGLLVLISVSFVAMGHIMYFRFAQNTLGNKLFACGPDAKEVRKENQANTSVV
test: Induction of human ferroportin degradation expressed in HEK293 cells after 24 hrs by flow cytometry
observation type: EC50 (nM)
Quick note: give the figure in nM, leave out the unit.

*Q* Would you mind telling me what EC50 value was observed for `CCCCCCCCCCCCCCCCNC(=O)CN(CC(N)=O)C(=O)CCCCCNC(=O)[C@H](Cc1ccccc1)NC(=O)[C@H](CCCNC(=N)N)NC(=O)[C@H](CS/C(=C\C(=O)OC)C(=O)OC)NC(=O)[C@H](CCCNC(=N)N)NC(=O)C[C@@H]1CCCN1C(=O)[C@@H](NC(=O)[C@H](Cc1cnc[nH]1)NC(=O)[C@@H](NC(=O)CNC(=O)CO)[C@@H](C)O)C(c1ccccc1)c1ccccc1` ?
*A* 12.6
